tested on: P. falciparum 3D7 trophozoites; test: Metabolomic fingerprint profiling LC-MS; type: cell-based, Plasmodium falciparum; settings: metabolite guanine; S2 Table Metabolomics, change in metabolite level after compound treatment
Rule: guanine under 0.1 gives 0 (no), otherwise 1 (yes).

>  <molecule>
Cc1ccc(Nc2nc(-c3ccccn3)cs2)cc1

>  <category>
1 (yes)

$$$$
>  <molecule>
COc1ccc(NC(=O)C2c3ccccc3C(=O)N(CC(C)C)C2c2cccs2)cc1 (stereo not shown)

>  <category>
1 (yes)

$$$$
>  <molecule>
Cc1cc(Nc2ccc(C)c(Cl)c2)n2nc(C(F)(F)F)nc2n1

>  <category>
1 (yes)

$$$$
>  <molecule>
CCOC(=O)c1c(C)n(-c2ccc(Cl)cc2)c2ccc(OC(=O)C=Cc3ccccc3)cc12

>  <category>
1 (yes)

$$$$
>  <molecule>
O=C(CSc1nccn2nc(-c3ccccc3)cc12)Nc1cc(C(F)(F)F)ccc1Cl

>  <category>
1 (yes)

$$$$
>  <molecule>
O=[N+]([O-])c1ccc(C=NNc2nc3ccccc3[nH]2)cc1

>  <category>
0 (no)

$$$$
>  <molecule>
CN1CCN(c2ccc(Nc3c4ccccc4nc4ccccc34)cc2)CC1

>  <category>
1 (yes)

$$$$
>  <molecule>
COc1ccc(C=C2SC(=N)N(c3ccccc3OC)C2=O)cc1

>  <category>
1 (yes)

$$$$
>  <molecule>
CCOC(=O)c1c(NC(=O)c2ccccc2)sc2c(O)c(CN(CC)CC)ccc12

>  <category>
0 (no)

$$$$
>  <molecule>
C[n+]1c2ccccc2nc2ccc(NCCO)cc21

>  <category>
1 (yes)

$$$$
>  <molecule>
Cc1cc(NC(=O)C2c3ccccc3C(=O)N(CC(C)C)C2c2cccs2)no1 (stereo not shown)

>  <category>
1 (yes)

$$$$
>  <molecule>
OC(CNC1CCCCC1)Cn1c2ccccc2c2ccccc21 (stereo not shown)

>  <category>
1 (yes)

$$$$
>  <molecule>
Fc1ccc2[nH]c3c(NCCCN4CCOCC4)ncnc3c2c1

>  <category>
1 (yes)

$$$$
>  <molecule>
O=C(NCC(c1ccsc1)N1CCCCCC1)c1ccc(C(F)(F)F)cc1 (stereo not shown)

>  <category>
0 (no)

$$$$
>  <molecule>
c1ccc(Cn2c(N=Nc3c(Nc4ccccc4)ccc4ccccc34)nc3ccccc32)cc1

>  <category>
0 (no)

$$$$
>  <molecule>
COc1ccc2c(c1)OC(O)(C(F)(F)C(F)(F)F)CC2=O (stereo not shown)

>  <category>
0 (no)

$$$$
>  <molecule>
CN(C)CCCNc1c2ccccc2nc2ccccc12

>  <category>
0 (no)

$$$$
>  <molecule>
CCCc1c(CC)c(=N)c2ccccc2n1C

>  <category>
1 (yes)

$$$$
>  <molecule>
CCOC(=O)c1cnc2ccc(CC)cc2c1O

>  <category>
0 (no)

$$$$
>  <molecule>
CCc1c(C)c(=N)c2ccccc2n1C

>  <category>
0 (no)

$$$$
>  <molecule>
COc1ccc(NC(=O)C2c3ccccc3C(=O)N(CC(C)C)C2c2cccs2)cc1Cl (stereo not shown)

>  <category>
1 (yes)

$$$$
>  <molecule>
O=C(O)C1Cc2c([nH]c3ccccc23)C(c2ccc(Cl)cc2Cl)N1 (stereo not shown)

>  <category>
0 (no)

$$$$
>  <molecule>
COc1ccc(C(C)=O)cc1N1C(=O)C2C(C1=O)C1(c3ccccc3)C(=O)C2(c2ccccc2)C(c2ccc(C)cc2)=C1c1ccc(C)cc1 (stereo not shown)

>  <category>
1 (yes)

$$$$
>  <molecule>
COc1ccccc1CNC(=O)CCn1c(=O)[nH]c2ccccc2c1=O

>  <category>
0 (no)

$$$$
>  <molecule>
Oc1ccccc1CNCC12CC3CC(CC(C3)C1)C2

>  <category>
0 (no)

$$$$
